Where do the numbers come from? From patent EP4786492A1.

- System tested: human DLL3 protein (extracellular segment, His tag) (human) (UniProt Q9NYJ7)
- Sequence (Q9NYJ7 27-492): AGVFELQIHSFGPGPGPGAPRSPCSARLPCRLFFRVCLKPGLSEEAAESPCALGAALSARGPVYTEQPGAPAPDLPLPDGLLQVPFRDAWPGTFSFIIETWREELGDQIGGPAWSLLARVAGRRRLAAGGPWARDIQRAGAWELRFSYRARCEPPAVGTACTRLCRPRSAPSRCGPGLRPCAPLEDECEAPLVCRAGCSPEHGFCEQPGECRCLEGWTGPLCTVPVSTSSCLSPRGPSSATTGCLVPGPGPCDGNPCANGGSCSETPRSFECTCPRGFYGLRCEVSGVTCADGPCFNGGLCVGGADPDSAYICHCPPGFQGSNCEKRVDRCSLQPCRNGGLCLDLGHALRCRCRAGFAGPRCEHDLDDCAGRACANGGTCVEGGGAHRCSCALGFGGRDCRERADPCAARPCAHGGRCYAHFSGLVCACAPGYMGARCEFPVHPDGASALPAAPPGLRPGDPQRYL
- Experimental details: SPR (Biacore 8K), antibody captured on Protein A chip, DLL3 antigen in solution, 1:1 Langmuir fit
Reported koff by item:
Reply numerically in s⁻¹, unit not repeated.

# annotated cases, reported koff shown
* mab008 scFv-hFc (Fc fusion, part only; not given: linker and human IgG1 Fc, not shown: a dimerising Fc or GST) scFv, part: DIVMTQSQKFMSTSVGDRVSITCKASQNVGTAVAWYQQKPGQSPKLLIFSASIRYTGVPDRFTGSGSGTDFTLTISNMQSEDLADYFCQQYSSSPYTFGGGTKLEIKEVQLQQSGPVLVKPGASVKMSCKASGYTFTDYYMNWVKRSHGKSLEWIGIINPYNGGTSYNQKFRGKATLTVDKSSNTAYMELNSLTSEDSAVYYCSRYDYDYDVEGAMDYWGQGTSVTVSS | 0.00034
* mab013 scFv-hFc (Fc fusion, part only; not given: linker and human IgG1 Fc, not shown: a dimerising Fc or GST) scFv, part: DIVLTQSPASLAVSLGQRATISCRASKSVSTSGFSYMHWYQQKPGQPPKLLIYLASNLESGVPARFSGSGSGTDFTLNIHPVEEEDAATYYCQHSRELPFTFGSGTKLEIKQVQLQQSGAELVKPGASVRISCKASGYAFSNYWINWVKQRPGKGLEWIGQINPGDGDTIYNGKFKGKATLTADKSSSTAYMQLSSLTSEDSAVYFCEREGRNYGDFAYWGQGTTLTVSS | 0.00082

Consider now this further binder.
koff in this record for Hab006VL4VH2-hFc (scFv, part only; not given: scFv linker and human IgG1 Fc, V domains shown, not shown: another chain or arm of the molecule; a dimerising Fc or GST; small tags and cut ends) VL: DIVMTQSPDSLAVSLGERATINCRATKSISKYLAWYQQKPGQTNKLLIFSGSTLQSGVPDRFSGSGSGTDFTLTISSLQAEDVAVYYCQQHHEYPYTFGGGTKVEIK VH: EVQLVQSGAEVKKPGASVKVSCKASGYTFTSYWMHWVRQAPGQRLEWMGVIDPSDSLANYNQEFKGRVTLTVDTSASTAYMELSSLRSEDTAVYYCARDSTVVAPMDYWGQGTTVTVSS : 0.000156
